Assay: NCI Yeast Anticancer Drug Screen. Data for the mlh1 rad18 strain (AID 175)
Settings: S. cerevisiae mlh1 rad18 strain growth inhibition; at 50.0 µM; stronger effect = higher value
Compounds without any hit were thinned out: in the full panel of roughly 79,000, 15% have a hit. The source made the active and inactive calls. Rule as the data show it: active = growth inhibition above about 70%; inactive = the rest.
measured_metric: growth inhibition

For the compound CCCN1CCN(c2ccc([N+](=O)[O-])c3no[n+]([O-])c23)CC1 , what growth inhibition is on record? 88.6% (active)

For the compound Cc1cc(Cl)ccc1NC(=O)CC1SC(=NC(=O)c2ccccc2Cl)NC1=O (centres undefined) , what growth inhibition is on record? 92.2% (active)

For the compound Clc1ccc(CNc2ccc(Br)cc2)cc1 , what growth inhibition is on record? 87.7% (active)

For the compound O/N=C1/C(=C/c2ccc(Cl)c(Cl)c2)CCCC1C(NO)c1ccc(Cl)c(Cl)c1 (centres undefined) , what growth inhibition is on record? 79% (active)

For the compound OCN(CO)c1ccc2c(c1)Cc1cc(F)ccc1-2 , what growth inhibition is on record? 97.8% (active)

For the compound CCCCCCCCCc1cc(=O)[nH]c(=S)[nH]1 , what growth inhibition is on record? 86.8% (active)

For the compound CCCCCCCCCCCCNCC#N , what growth inhibition is on record? 93% (active)

For the compound O=S(Nc1ccccc1Br)c1ccccc1 (centres undefined) , what growth inhibition is on record? 44.8% (inactive)

For the compound CC(C)=CCc1c2c(c3occ(-c4ccc(O)c(O)c4)c(=O)c3c1O)C=CC(C)(C)O2 , what growth inhibition is on record? 90.8% (active)

====

Experiment: NCI Yeast Anticancer Drug Screen. Data for the rad50 strain (AID 155);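 also: 0% = growth of vehicle-only cultures of the same strain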
Settings: S. cerevisiae rad50 strain growth inhibition; at 50.0 µM; stronger effect = higher value
Compounds without any hit were thinned out: in the full panel of roughly 79,000, 15% have a hit.
// class assignment uses growth inhibition with these ranges: zone 1 (below 40%), zone 2 (40% to below 90%), zone 3 (90% or more)

Which growth inhibition category applies to CC(C)C(O)(C(=O)OCN1C(=O)C2C3C=CC(C2C1=O)C1C2C(=O)N(COC(=O)C(O)(C(C)C)C(C)O)C(=O)C2C31)C(C)O (configuration not stated) here? zone 1

Which growth inhibition category applies to OC(c1cc(-c2ccccc2)nc2cc(Cl)ccc12)C1CCCCN1 (configuration not stated) here? zone 1

Which growth inhibition category applies to OC(C/C(=N\N=C(/CC(O)(C(F)(F)F)C(F)(F)F)c1ccccc1)c1ccccc1)(C(F)(F)F)C(F)(F)F here? zone 2

Which growth inhibition category applies to CCC[n+]1ccnc2ccccc21 here? zone 1

Which growth inhibition category applies to O=C(Nc1ccccc1)OCCN=C1c2ccccc2CCc2ccccc21 here? zone 2

Which growth inhibition category applies to CCO/C=C1N=C(/C=C/c2ccc(Cl)cc2)OC/1=O here? zone 1

Which growth inhibition category applies to C=C1CC(Cn2cc(Br)c(=O)[nH]c2=O)(c2ccc(Br)cc2)OC1=O (configuration not stated) here? zone 3

Which growth inhibition category applies to O=C(c1ccccc1)C1(C(=O)c2ccccc2)/C(=N\O)C2CCC1C2 (configuration not stated) here? zone 1

Which growth inhibition category applies to COC(=O)C(O)(/C(=N\O)c1ccccc1)c1ccccc1 (configuration not stated) here? zone 1

Which growth inhibition category applies to CC(=O)c1c(O)ccc2nc3ccccc3nc12 here? zone 3

Which growth inhibition category applies to O=C1/C(=C/c2ccc([N+](=O)[O-])cc2)Sc2scc(-c3cccc([N+](=O)[O-])c3)[n+]21 here? zone 2

Which growth inhibition category applies to CS(=O)(=O)OCCN(CCOS(C)(=O)=O)c1ccc(C=Nc2cccc(Br)c2)c(Cl)c1 here? zone 2

Which growth inhibition category applies to COc1ccc2c(c1)nc1cc(Cl)ccc1[n+]2C here? zone 2

Which growth inhibition category applies to Nc1nc(N)c2nc(Sc3ccc(F)cc3)c(N)nc2n1 here? zone 2

Which growth inhibition category applies to CC1(Cc2ccccc2)CCCC(C=O)C1=O.[Cu+2] (configuration not stated) here? zone 2

Which growth inhibition category applies to CC(=O)OCc1ccc([N+](=O)[O-])o1 here? zone 3

Which growth inhibition category applies to CC(=O)N/N=C1/CC[C@@]2(C)C(=CC[C@H]3C4CCC(C(C)CCCC(C)C)[C@@]4(C)CCC32)C1(C)C (some centres not stated) here? zone 1

Which growth inhibition category applies to COc1ccnc(-c2cc(OC)cc(/C(N)=N/O)n2)c1 here? zone 3

Which growth inhibition category applies to CC(=O)N1c2ccccc2Sc2ccc3ccc(C(=O)CCl)cc3c21 here? zone 2

// data source = PubChem BioAssay (NCI)
